Assay: NCI Yeast Anticancer Drug Screen. Data for the rad50EPP+ strain (AID 151)
Conditions: S. cerevisiae rad50 mutant strain, at 33.0 µM, hits give high values
About 79,000 compounds went through this panel and 15% of them were active in at least one assay; those are over-represented in the sample as a whole.
Param threshold (40%) applies to growth inhibition; output TRUE when value >= threshold, FALSE when value < threshold.

compound	assigned label
CCCCCCCCCCCCCCCCP(=O)(O)OCC(N)C(=O)O (configuration not stated)	FALSE
O=[N+]([O-])O.[NH-]C1CCCCC1[NH-].[NH-]C1CCCCC1[NH-].[NH-]C1CCCCC1[NH-].[OH-].[OH-].[OH-].[Pt+4].[Pt+4].[Pt+4] (configuration not stated)	FALSE
CC1CCC2(NC1)OC1CC3C4CCC5CC(OC6OC(CO)C(OC7OC(CO)C(O)C(OC8OCC(O)C(O)C8O)C7OC7OC(CO)C(O)C(O)C7O)C(O)C6O)CCC5(C)C4CCC3(C)C1C2C (configuration not stated)	FALSE
O=C(NNC(=O)OCC(Cl)(Cl)Cl)OCC(Cl)(Cl)Cl	FALSE
CC1CC(C)CC(C)C(O)/C(C#N)=C/C=C/CC(C2CCCC2C(=O)O)OC(=O)CC(O)C(C)C1 (configuration not stated)	TRUE
O=C1C=C(CN(CCCl)CCCl)C(=O)C=C1CN(CCCl)CCCl	FALSE
C[N+](CCCl)(CCCl)Cc1cccc2cccc([N+](=O)[O-])c12	TRUE
CCC1(O)C(=O)OCc2c1cc1n(c2=O)Cc2c-1nc1ccccc1c2OC (configuration not stated)	FALSE
CCS(=O)(=O)[O][Sn]([CH2]C)([CH2]C)[O]S(=O)(=O)CC	FALSE
Oc1ccc(Cl)cc1Cc1ccccc1	TRUE
c1cc2c(cc1C1OC[C@H]3[C@@H](c4ccc5c(c4)OCO5)OC[C@@H]13)OCO2 (some centres not stated)	FALSE
BrCC[N+]12CC[N+](CCBr)(CC1)C2	TRUE
Br[Se]c1ccccn1	TRUE
Cn1cnc(N)c1C(=N)[Se]	TRUE
C/C(=N\O)c1ccc2ccc3ccccc3c2c1	TRUE
C[C@]12CCc3nonc3C1CC[C@@H]1C2CC[C@]2(C)C(=O)CCC12 (some centres not stated)	FALSE
COc1cccc2c1C(=O)c1c(O)c3c(c(O)c1C2=O)C[C@@](O)(/C(C)=N\O)C[C@@H]3OC1CC(N)C(O)C(C)O1 (some centres not stated)	TRUE
OC1(c2ccccc2)CC2CCC(C1)N2CCCC(O)(c1ccccc1)c1ccccc1 (configuration not stated)	FALSE
O=C(O)CCCOc1cc(Cl)c(Cl)cc1Cl	TRUE
NNc1ccccc1Cl	TRUE
Cc1ccc2c(c1N)C(=O)c1ccccc1C2=O	TRUE
CNC(=O)ON(C(C)=O)C(=O)NC	FALSE

Origin of the recorded values: PubChem BioAssay (NCI)
